# measurement_target: UniProt:P08684
# Sequence (P08684 whole entry): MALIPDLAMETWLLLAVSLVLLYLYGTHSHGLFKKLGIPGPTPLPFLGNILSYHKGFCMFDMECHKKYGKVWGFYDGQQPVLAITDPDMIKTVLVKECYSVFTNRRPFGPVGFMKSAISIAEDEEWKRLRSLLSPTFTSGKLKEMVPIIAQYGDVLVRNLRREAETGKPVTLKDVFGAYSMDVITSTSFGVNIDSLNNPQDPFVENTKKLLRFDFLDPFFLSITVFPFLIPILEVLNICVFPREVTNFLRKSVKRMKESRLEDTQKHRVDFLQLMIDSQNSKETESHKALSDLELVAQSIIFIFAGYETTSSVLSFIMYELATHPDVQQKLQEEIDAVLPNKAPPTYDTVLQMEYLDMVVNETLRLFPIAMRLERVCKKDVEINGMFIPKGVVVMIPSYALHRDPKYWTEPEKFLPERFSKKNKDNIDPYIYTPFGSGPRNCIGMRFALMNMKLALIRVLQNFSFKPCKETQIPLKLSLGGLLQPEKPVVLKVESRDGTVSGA
quantity: IC50 (µM)
# value in µM; strip the unit string

# get_value(readout= IC50, system= UniProt:P08684) for COc1cc(-c2cn(C)c(=O)c(C)c2C)cc(OC)c1CN1CCC(N2CCN(c3ccc(NC4CCC(=O)NC4=O)cc3F)CC2)C(F)(F)C1 (stereo not shown)
18.2

---

# measurement_target: UniProt Q9H8M2
# Sequence (Q9H8M2 whole entry): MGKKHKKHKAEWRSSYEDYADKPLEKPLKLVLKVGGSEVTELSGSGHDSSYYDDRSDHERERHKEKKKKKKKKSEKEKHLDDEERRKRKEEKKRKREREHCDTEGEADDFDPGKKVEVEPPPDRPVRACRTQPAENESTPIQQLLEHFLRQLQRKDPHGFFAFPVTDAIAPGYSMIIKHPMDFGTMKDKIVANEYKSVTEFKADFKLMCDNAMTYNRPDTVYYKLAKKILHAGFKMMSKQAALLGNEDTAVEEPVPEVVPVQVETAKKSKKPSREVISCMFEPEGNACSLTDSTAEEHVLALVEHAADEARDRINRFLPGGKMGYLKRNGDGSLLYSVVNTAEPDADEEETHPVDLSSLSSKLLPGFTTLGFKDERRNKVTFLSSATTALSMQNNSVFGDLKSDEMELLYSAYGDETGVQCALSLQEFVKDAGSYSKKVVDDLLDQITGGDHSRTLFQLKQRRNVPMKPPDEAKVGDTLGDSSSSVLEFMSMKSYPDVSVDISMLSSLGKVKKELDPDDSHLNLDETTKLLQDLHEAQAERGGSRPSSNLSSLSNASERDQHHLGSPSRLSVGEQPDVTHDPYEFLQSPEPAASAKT
# protocol_details: HiBiT BRD9 degradation assay in 293T.166 (BRD9-HiBiT) cells
# Type: cell-based
# Set-up: endogenously expressing BRD9 with HiBiT fusion tag via CRISPR; host or cells: 293T.166 (BRD9-HiBiT), also expressing LgBiT ectopically
# experimental_context: Table 1; 293T.166 cells, 2.0 hours; class symbols; read-out: HiBiT-Degradation 293T.166 BRD9 2.0 hours (DC50)
Reported DC50 by item:

Worked cases, DC50 given:
- compound: "Cc1c(-c2ccc(C(=O)N3CCC(C4CCN(c5ccc(NC6CCC(=O)NC6=O)cc5F)CC4)CC3)c(OC(F)(F)F)c2)cn(C)c(=O)c1C (stereo not drawn) [Compound 212]"
  DC50: "< 100 nM"
- compound: "COc1cc(-c2cn(C)c(=O)c3ccccc23)cc(Cl)c1CN1CCC(N(C)C(=O)N2CCC(c3ccc(NC4CCC(=O)NC4=O)cc3)CC2)CC1 (stereo not drawn) [Compound 121]"
  DC50: "< 100 nM"

Value lookup for DC50; key = COc1cc(-c2cn(C)c(=O)c3cnccc23)cc(F)c1C(=O)N1CCC(N(C)C(=O)N2CCC(c3ccc(NC4CCC(=O)NC4=O)cc3)CC2)CC1 (stereo not drawn) [Compound 132]
< 100 nM

---

# measurement_target: CYP 2C19 (Homo sapiens)
# Sequence (P33261 whole entry): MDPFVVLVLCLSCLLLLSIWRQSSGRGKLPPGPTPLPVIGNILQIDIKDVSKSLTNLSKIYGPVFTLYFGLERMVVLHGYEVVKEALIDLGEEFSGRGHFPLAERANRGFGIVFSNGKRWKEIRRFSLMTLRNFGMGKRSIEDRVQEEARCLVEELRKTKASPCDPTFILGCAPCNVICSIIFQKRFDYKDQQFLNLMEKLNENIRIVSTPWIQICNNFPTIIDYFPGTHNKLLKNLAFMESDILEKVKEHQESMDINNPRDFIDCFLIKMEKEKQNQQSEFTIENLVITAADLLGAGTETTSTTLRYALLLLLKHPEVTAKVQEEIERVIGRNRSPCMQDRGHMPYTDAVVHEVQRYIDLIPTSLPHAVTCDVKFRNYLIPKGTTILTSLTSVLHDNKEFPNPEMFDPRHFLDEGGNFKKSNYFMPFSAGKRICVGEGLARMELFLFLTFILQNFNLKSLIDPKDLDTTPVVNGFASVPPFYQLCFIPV
# protocol_details: CYP TDI (time-dependent inhibition)
# Type: in vitro ADME
# experimental_context: 2C19, second of two values in brackets; read-out: CYP TDI 2C19, second value
quantity: pIC50
Scale explanation: pIC50 corresponds to minus log10 of a concentration expressed in moles per litre.

Value lookup for pIC50; key = COc1cc(-c2cn(C)c(=O)c(C)c2C)cc(OC)c1CN1CCC(N2CCN(c3ccc(NC4CCC(=O)NC4=O)cc3F)CC2)C(F)(F)C1 (stereo not shown)
4.62

---

# measurement_target: CYP 2B6 (Homo sapiens, UniProt P20813)
# Sequence (P20813 whole entry): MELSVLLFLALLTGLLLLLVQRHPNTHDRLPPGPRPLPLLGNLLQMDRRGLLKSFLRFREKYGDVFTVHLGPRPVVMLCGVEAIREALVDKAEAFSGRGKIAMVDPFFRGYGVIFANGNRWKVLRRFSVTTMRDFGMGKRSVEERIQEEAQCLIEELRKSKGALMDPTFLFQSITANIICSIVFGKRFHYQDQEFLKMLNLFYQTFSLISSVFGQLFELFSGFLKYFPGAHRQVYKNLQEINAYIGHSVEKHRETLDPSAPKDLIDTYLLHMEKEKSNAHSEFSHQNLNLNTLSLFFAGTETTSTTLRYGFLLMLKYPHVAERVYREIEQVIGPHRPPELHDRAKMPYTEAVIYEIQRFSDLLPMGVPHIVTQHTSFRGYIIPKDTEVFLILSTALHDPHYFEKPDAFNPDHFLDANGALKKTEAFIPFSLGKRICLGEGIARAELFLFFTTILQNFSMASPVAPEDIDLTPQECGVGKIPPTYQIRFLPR
quantity: pIC50
Scale explanation: pIC50 corresponds to minus log10 of a concentration expressed in moles per litre.

Value lookup for pIC50; key = COc1cc(-c2cn(C)c(=O)c(C)c2C)cc(OC)c1CN1CCC(N2CCN(c3ccc(NC4CCC(=O)NC4=O)cc3F)CC2)C(F)(F)C1 (stereo not shown) [Compound 172]
7.00

---

# protocol_details: PPB, mouse
# Assay type: in vitro ADME
# experimental_context: plasma
quantity: fraction unbound
Give the figure only, with no unit attached.

- compound: "COc1cc(-c2cn(C)c(=O)c(C)c2C)cc(OC)c1CN1CCC(N2CCN(c3ccc(NC4CCC(=O)NC4=O)cc3F)CC2)C(F)(F)C1 (single isomer, unassigned) [Compound 176]"
  fraction unbound: 0.034

Now examine the next entry.
Value lookup for fraction unbound; key = COc1cc(-c2cn(C)c(=O)c(C)c2C)cc(OC)c1CN1CCC(N2CCN(c3ccc(NC4CCC(=O)NC4=O)cc3F)CC2)C(F)(F)C1 (centres unmarked) [Compound 172]
0.018

Each recorded value in this set is attributed to patent US11691972B2.
